- PROTOCOL: in vitro
- TEST_CONDITIONS: rat, gh3-tre-luc cells, AC50 (uM) modified / 1000, Tox21_110001=Tox21_111802; viability, 1 nM T3 present, 24 h
REPORTED_PROPERTY: CC50 at 24 h

Which CC50 at 24 h is reported for this compound? O=C(CCl)c1ccc(Oc2ccc(C(=O)CCl)cc2)cc1 [Clofenoxyde]
> 50 µM

* * *

- System: GH3-TRE-Luc cell line
- TEST_CONDITIONS: read-out: AC50 (uM) modified / 1000; Tox21_110001=Tox21_303570; viability, 1 nM T3 present, 24 h
REPORTED_PROPERTY: CC50

Form field: reported CC50 of `O=S1(=O)OC(c2ccc(O)cc2)(c2ccc(O)cc2)c2ccccc21`
79.8 µM

* * *

- PROTOCOL: in vitro
- TEST_CONDITIONS: rat, gh3-tre-luc cells, AC50 (uM) modified / 1000
Where a name gives a salt, the structure may show the parent alone.
The entries below come with measured CC50 at 24 h values attached.

Would you please look over these solved cases?
MOLECULE: Cc1c(-c2cccnc2)c2ccccc2n1CCCCC(=O)O [UK-156819]
CC50 at 24 h: > 90 µM
--
MOLECULE: CN1CCN(C2=Nc3ccccc3Cc3ccccc32)CC1 [Perlapine]
CC50 at 24 h: 25.9 µM
--
MOLECULE: C=CC(=O)Nc1cc2c(Nc3ccc(F)c(Cl)c3)ncnc2cc1OCCCN1CCOCC1 [Canertinib]
CC50 at 24 h: 4.7 µM
--
MOLECULE: CCCCOC(=O)CC(CC(=O)OCCCC)(OC(C)=O)C(=O)OCCCC [Acetyl tributyl citrate]
CC50 at 24 h: > 90 µM
--
MOLECULE: O=C(O)CC(O)C(=O)O (stereo not shown) [Malic acid]
CC50 at 24 h: > 90 µM

Fill blank: measured CC50 at 24 h of the molecule Cc1cc(C(=O)NNCc2ccccc2)no1 [Isocarboxazid] is ____.
> 20 µM

Returns the measured CC50 at 24 h for the input molecule. Input: CC(C)(S)C(=O)N[C@@H](CS)C(=O)O [Bucillamine]
> 50 µM

Look up CC50 at 24 h for this molecule: CC(=O)c1ccc2c(c1)N(CCCN(C)C)c1ccccc1S2 [Acetopromazine maleate]
9.14 µM

Which CC50 at 24 h is reported for this molecule? CCOC(=O)c1ccc(C#Cc2ccc3c(c2)C(C)(C)CCS3)nc1 [Tazarotene]
> 50 µM

Need CC50 at 24 h of CCCCCCCC/C=C\CCCCCCCC(N)=O [(9Z)-Octadec-9-enamide] , thanks.
> 90 µM

* * *

- PROTOCOL: in vitro
- TEST_CONDITIONS: rat, gh3-tre-luc cells, AC50 (uM) modified / 1000, Tox21_110001=Tox21_111058; viability, 1 nM T3 present, 24 h
REPORTED_PROPERTY: CC50 at 24 h

Reported CC50 at 24 h for C[C@]12CC[C@H]3[C@@H](CCC4=CC(=O)CC[C@@]43C)[C@@H]1CC[C@H]2O [Epitestosterone] : what is it?
> 50 µM

* * *

- Tested on: GH3-TRE-Luc cell line
- TEST_CONDITIONS: read-out: AC50 (uM) modified / 1000; Tox21_110001=Tox21_301446; viability, 1 nM T3 present, 24 h
REPORTED_PROPERTY: CC50 (µM)
// note: answer is a bare numeric in µM

# get_value(readout='CC50', item= Cc1cc(C(C)(C)CC(C)(C)C)ccc1OCCOCC[N+](C)(C)Cc1ccccc1 [Methylbenzethonium chloride] )
7.92

* * *

- PROTOCOL: in vitro
- TEST_CONDITIONS: rat, gh3-tre-luc cells, AC50 (uM) modified / 1000, Tox21_110001=Tox21_111863; viability, 1 nM T3 present, 24 h
REPORTED_PROPERTY: CC50 at 24 h

For the compound shown here, CCCCCCCCCC(=O)O[C@H]1CC[C@H]2[C@@H]3CCC4=CC(=O)CC[C@]4(C)[C@H]3CC[C@]12C [Testosterone decanoate] , give the reported CC50 at 24 h.
> 50 µM

* * *

Parameter: CC50 at 24 h. Scope: all listed entries.
- PROTOCOL: in vitro
- TEST_CONDITIONS: rat, gh3-tre-luc cells, AC50 (uM) modified / 1000
Structures can show the parent of a compound that is named as a salt.

MOLECULE: CC(C)(C)c1cc(CCC(=O)NN)cc(C(C)(C)C)c1O
CC50 at 24 h: > 90 µM

MOLECULE: Cc1occc1S
CC50 at 24 h: > 90 µM

MOLECULE: CC(C)CCCCCOC(=O)COc1ccc(Cl)cc1Cl
CC50 at 24 h: > 90 µM

MOLECULE: O=C(NCCO[N+](=O)[O-])c1cccnc1
CC50 at 24 h: > 50 µM

MOLECULE: O=c1[nH][nH]c2ccccc12
CC50 at 24 h: > 90 µM

MOLECULE: O=C(CCCN1CCC(n2c(=S)[nH]c3ccccc32)CC1)c1ccc(F)cc1
CC50 at 24 h: 23.9 µM

MOLECULE: O=C(O)CCCOc1ccc(Cl)cc1Cl [2,4-DB-sodium]
CC50 at 24 h: > 90 µM

MOLECULE: OCC(O)CO
CC50 at 24 h: > 90 µM

Please look up its CC50 at 24 h: C#CCN(C)CCCOc1ccc(Cl)cc1Cl [Clorgyline hydrochloride]
28.1 µM

Sample CC(C)=CC1C(C(=O)OC(C#N)c2cccc(Oc3ccccc3)c2)C1(C)C (centres unmarked) — what was its CC50 at 24 h?
> 90 µM

Fill blank: measured CC50 at 24 h of the molecule `Cc1cnc(C(=O)O)c[n+]1[O-]` is ____.
> 50 µM

* * *

- PROTOCOL: in vitro
- TEST_CONDITIONS: rat, gh3-tre-luc cells, AC50 (uM) modified / 1000, Tox21_110001=Tox21_200804; viability, 1 nM T3 present, 24 h
REPORTED_PROPERTY: CC50 at 24 h

Fill in the blank: the reported CC50 at 24 h of N#CC(O)c1ccccc1 (stereo not drawn) [alpha-Hydroxybenzeneacetonitrile] is ____.
> 90 µM

* * *

Listed next: entries and their corresponding CC50 at 24 h.
- PROTOCOL: in vitro
- TEST_CONDITIONS: rat, gh3-tre-luc cells, AC50 (uM) modified / 1000
Where a name gives a salt, the structure may show the parent alone.

Consider the worked cases shown below.
COMPOUND: O=C(Cn1cnnn1)N[C@@H]1C(=O)N2C(C(=O)O)=C(CSc3nncs3)CS[C@H]12 [Ceftezole sodium]
CC50 at 24 h: > 50 µM
--
COMPOUND: CCCOC(=O)c1ccc(C(=O)OCCC)nc1 [Dipropyl 2,5-pyridinedicarboxylate]
CC50 at 24 h: > 90 µM
--
COMPOUND: NC(=O)Cn1c(=O)cc(CCN2CCN(c3nccc4sccc34)CC2)c2ccc(F)cc21
CC50 at 24 h: 52.8 µM
--
COMPOUND: COc1ccc2c(=O)c(C)c(-c3ccccc3)oc2c1CN(C)C [Dimefline hydrochloride]
CC50 at 24 h: > 50 µM
--
COMPOUND: CN(C(=O)CCCOc1ccc2[nH]c(=O)ccc2c1)C1CCCCC1 [Cilostamide]
CC50 at 24 h: > 50 µM
--
COMPOUND: Oc1ccc(Cc2ccccc2)cc1
CC50 at 24 h: 84.1 µM
--
COMPOUND: NC(=O)CN1CC(O)CC1=O (stereo not drawn)
CC50 at 24 h: > 50 µM
--
COMPOUND: O=S(O)CO
CC50 at 24 h: > 50 µM
--
COMPOUND: c1ccc2[nH]cnc2c1
CC50 at 24 h: > 90 µM
--
COMPOUND: O=c1[nH]nc(-c2ccc([N+](=O)[O-])o2)o1
CC50 at 24 h: 67.5 µM

Quick check: CC50 at 24 h of CCCCCCCCCCCCOCC1CO1 (stereo not drawn) ?
> 90 µM

Endpoint output: CC50 at 24 h of `CNC(=S)NC` . Value?
> 90 µM

# CC50 at 24 h lookup, item `Cc1cn([C@H]2C[C@H](F)[C@@H](CO)O2)c(=O)[nH]c1=O`
> 50 µM

Item NCC[C@H](O)C(=O)N[C@@H]1C[C@H](N)[C@@H](O[C@H]2O[C@H](CN)[C@@H](O)[C@H](O)[C@H]2N)[C@H](O[C@@H]2O[C@H](CO)C(O)[C@H]2O)[C@H]1O (stereo partly drawn) [Butirosin disulfate] has what recorded CC50 at 24 h?
> 20 µM

Can you look up the measured CC50 at 24 h of `O=C1C=CCCC1` for me?
> 90 µM

Give the measured CC50 at 24 h of CN1CCCC(CC2c3ccccc3Sc3ccccc32)C1 (stereo not drawn) [Metixene hydrochloride] .
8.17 µM

Request the reported CC50 at 24 h associated with CC1=CCC(O)(C(C)C)CC1 (stereo not drawn)
> 90 µM

Which value of CC50 at 24 h has been reported for CCC(C)(C)C1CCC(O)CC1 (stereo not drawn) in the records?
> 90 µM

Look up CC50 at 24 h for this compound: `CN1[C@@H]2CC[C@H]1C[C@@H](OC(=O)c1c[nH]c3ccccc13)C2`
23.8 µM

Could you tell me which CC50 at 24 h is on file for COc1cc(CCN)cc(OC)c1OC [Mescaline hydrochloride] ?
> 100 µM

Could you share which CC50 at 24 h value was measured for C=C(C)C(=O)OCCCCCCCCCCCCCCCCCC [Stearyl methacrylate] ?
> 20 µM

Tell me the measured CC50 at 24 h of C[n+]1ccn(Cc2ccccc2)c1 [1-Benzyl-3-methylimidazolium chloride] , please.
> 90 µM

What does the data say about its CC50 at 24 h? Entry: `CCOC(=O)COc1ccc2c(c1)C[C@@H](NC[C@H](O)c1cccc(Cl)c1)CC2`
24.3 µM

Request the reported CC50 at 24 h associated with `COc1ccc(-c2coc3cc(O)ccc3c2=O)cc1`
> 90 µM

Param item = `Sc1nc(S)nc(S)n1` ; retrieve measured CC50 at 24 h.
> 50 µM

Give the measured CC50 at 24 h of `CC1(C)CON(Cc2ccccc2Cl)C1=O` .
> 90 µM

Requested field: CC50 at 24 h. Item: `CO[C@H]1C[C@H](O[C@H]2[C@H](C)[C@@H](O[C@@H]3O[C@H](C)C[C@H](N(C)C)[C@H]3OC(C)=O)[C@@H](C)C[C@@]3(CO3)C(=O)[C@H](C)[C@@H](OC(C)=O)[C@@H](C)[C@@H](C)OC(=O)[C@@H]2C)O[C@@H](C)[C@@H]1OC(C)=O`
> 20 µM

For `O=CC=O` , what is its reported CC50 at 24 h?
> 90 µM

Requested field: CC50 at 24 h. Item: `CCCCCCCCCCCCc1ccc(O)cc1`
15.6 µM

I am curious: what CC50 at 24 h value has been reported for O=C1c2ccccc2C(=O)C1(O)O [Ninhydrin] ?
> 90 µM
